B1: H2-Kb / B15 (parent complex)
chain 1: QQQVRQSPQSLTVWEGETAILNCSYENSAFDYFPWYQQFPGEGPALLISILSVSDKKEDGRFTIFFNKREKKLSLHIADSQPGDSATYFCAASAASNNRLTLGKGTQVVVLP
chain 2: DSGVVQSPRHIIKEKGGRSVLTCIPISGHSNVVWYQQTLGKELKFLIQHYEKVERDKGFLPSRFSVQQFDDYHSEMNMSALELEDSAMYFCASSRRADAEQFFGPGTRLTVL
chain 3: not shown
chain 4: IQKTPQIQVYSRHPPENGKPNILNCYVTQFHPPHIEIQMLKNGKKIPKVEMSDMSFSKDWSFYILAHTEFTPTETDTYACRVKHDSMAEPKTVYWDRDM
chain 5: SIINFEKL

- Variants of: B1
- protocol_summary: % of reporter cells activated (NFAT-GFP), raw; further: test concentration or dose not given here
endpoint: ratio to parent
Note: the reply should be a number with no unit written.

// known answers, use as guide
| mutation_string | measured_value |
| --- | --- |
| chain 5 N4M | 0.00683 |
| chain 5 S1W | 0.383 |
| chain 5 K7N | 0.27 |
| chain 5 F5K | 0.698 |
| chain 5 F5V | 0.999 |
| chain 5 L8Q | 0.784 |
| chain 5 I2M | 0.89 |
| chain 5 I2V | 1 |
| chain 5 I3Q | 0.743 |
| chain 5 I3A | 0.5 |

Incoming: Value lookup for ratio to parent; key = chain 5 E6C
Outgoing: 0.47

Incoming: Next entry: chain 5 L8P
Outgoing: 0.75

Incoming: Input chain 5 E6L
Outgoing: 0.0519

Incoming: Moving on to the next variant: chain 5 I2S
Outgoing: 0.959

Incoming: Same for chain 5 S1Q
Outgoing: 0.961

Incoming: Input chain 5 K7C
Outgoing: 0.0553

Incoming: Moving on to chain 5 I2H
Outgoing: 0.9

Incoming: Try the variant chain 5 N4D
Outgoing: 0.0675

Incoming: Can you handle chain 5 E6Q next?
Outgoing: 0.41

Incoming: Then what about the variant chain 5 L8F ?
Outgoing: 0.907

Incoming: Same question, chain 5 S1E this time
Outgoing: 0.759

Incoming: Let us now turn to chain 5 F5M
Outgoing: 0.836

Incoming: And what about the variant chain 5 K7H ?
Outgoing: 0.291
